B1: ZBED1 (parent)
chain: EQVFSLGDGVSGGFFGIRDSSFL

- Variants of: B1
- Protocol Text: protein stability index of a GFP-peptide fusion (GPS, HEK-293T) (PSI 1-6); higher = more stable;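 note: lentivirally expressed fusions sorted by FACS into six bins by GFP to DsRed ratio, PSI derived from sequencing read proportions per bin multiplied by bin number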
- Assay Setup: c terminus: native
Measured Parameter: protein stability index
Answers are plain numbers.

Guide cases for protein stability index, answers given:
[[record]]
sequence_content = "EQVFSLGDGVSGGFFGIRDYSFL"
measured_parameter = "protein stability index"
measured_result = 2.96

[[record]]
sequence_content = "EQVFSLGDGVSGGFFGIRDSSLL"
measured_parameter = "protein stability index"
measured_result = 3.41

[[record]]
sequence_content = "EQVFSLRDGVSGGFFGIRDSSFL"
measured_parameter = "protein stability index"
measured_result = 2.94

[[record]]
sequence_content = "EQVFSMGDGVSGGFFGIRDSSFL"
measured_parameter = "protein stability index"
measured_result = 3.2

[[record]]
sequence_content = "EQVFSLGDGVTGGFFGIRDSSFL"
measured_parameter = "protein stability index"
measured_result = 3.18

[[record]]
sequence_content = "EQNFSLGDGVSGGFFGIRDSSFL"
measured_parameter = "protein stability index"
measured_result = 3.82

[[record]]
sequence_content = "EQVFSLGDGVSGGFFGIRDSSFY"
measured_parameter = "protein stability index"
measured_result = 2.61

[[record]]
sequence_content = "EQVKSLGDGVSGGFFGIRDSSFL"
measured_parameter = "protein stability index"
measured_result = 4.06


Can you give me protein stability index for all of these, one by one?
1. EQVFSLGDGVSGGFYGIRDSSFL
2. YQVFSLGDGVSGGFFGIRDSSFL
3. EQVFMLGDGVSGGFFGIRDSSFL

1. 3.52
2. 3.12
3. 2.67
